biological target: UniProtKB Q9NR97; assay: TLR8 inhibition reporter assay (HEK-Blue SEAP reporter); conditions: HEK-Blue cells overexpressing human TLR8; R848 15.9 μM; 22 hour incubation
Sequence (Q9NR97 27-1041): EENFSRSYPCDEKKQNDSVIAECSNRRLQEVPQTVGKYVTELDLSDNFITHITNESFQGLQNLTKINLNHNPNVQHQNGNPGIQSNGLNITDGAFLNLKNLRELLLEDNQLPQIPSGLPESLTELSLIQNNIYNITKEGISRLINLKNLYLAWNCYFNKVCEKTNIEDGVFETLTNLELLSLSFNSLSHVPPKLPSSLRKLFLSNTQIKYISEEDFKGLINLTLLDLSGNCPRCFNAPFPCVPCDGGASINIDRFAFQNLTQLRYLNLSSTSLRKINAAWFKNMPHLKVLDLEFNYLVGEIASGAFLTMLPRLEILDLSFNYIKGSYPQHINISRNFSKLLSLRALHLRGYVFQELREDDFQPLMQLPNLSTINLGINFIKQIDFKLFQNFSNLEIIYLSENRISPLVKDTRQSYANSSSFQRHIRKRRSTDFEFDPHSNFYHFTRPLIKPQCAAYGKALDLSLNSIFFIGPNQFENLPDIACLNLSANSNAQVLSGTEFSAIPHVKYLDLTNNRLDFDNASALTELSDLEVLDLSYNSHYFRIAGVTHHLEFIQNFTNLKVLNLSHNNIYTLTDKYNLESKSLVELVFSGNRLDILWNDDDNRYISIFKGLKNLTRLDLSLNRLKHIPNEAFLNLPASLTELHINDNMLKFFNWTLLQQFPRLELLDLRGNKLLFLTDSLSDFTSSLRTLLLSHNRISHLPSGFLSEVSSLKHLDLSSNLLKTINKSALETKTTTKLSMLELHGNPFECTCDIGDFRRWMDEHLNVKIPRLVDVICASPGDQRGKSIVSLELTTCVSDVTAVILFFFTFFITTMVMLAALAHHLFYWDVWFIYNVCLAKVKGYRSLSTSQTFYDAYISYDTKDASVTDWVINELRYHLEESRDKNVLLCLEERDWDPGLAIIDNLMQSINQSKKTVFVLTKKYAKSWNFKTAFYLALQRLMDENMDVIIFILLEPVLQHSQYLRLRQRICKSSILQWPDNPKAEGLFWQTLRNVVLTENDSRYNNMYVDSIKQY
pIC50: −log10 of the molar value.
measuredAttribute: pIC50

Guide cases for pIC50, answers given:
compound=COc1ccc(-c2[nH]c3ccc(NC(=O)CN)cc3c2C(C)C)cc1OC measuredvalue=7.77
compound=CCc1c(-c2ccc(OC)c(OC)c2)[nH]c2ccc(N3CCN(C4CCN(C(C)C)CC4)CC3)cc12 measuredvalue=8.00
compound=COc1ccc(-c2[nH]c3ccc(N4CCC(NC5CCN(C(C)=O)CC5)CC4)cc3c2C(C)C)cc1OC measuredvalue=8.30

(A) COc1ccc(-c2[nH]c3ccc(N4CCC(NCCCN(C)C)CC4)cc3c2C(C)C)cc1OC [Example 76]
(B) CCc1c(-c2ccnc3[nH]ncc23)[nH]c2ccc(N3CCC(OC4CCN(C(C)C)CC4)CC3)cc12
(C) COc1ccc(-c2[nH]c3ccc(N4CCN(C5CC(C)(C)NC(C)(C)C5)CC4)cc3c2C)cc1OC
Order the records, beginning with the lowest pIC50 and ending with the highest. Give your ranking as a list of the labels in the requested order.
C, B, A
(C: 4.49, B: 4.73, A: 8.11)
